Target: HLA-A*02:17
Experiment: IEDB peptide-MHC binding, purified MHC/competitive/radioactivity; filed as Kd, often an IC50 or EC50 that approximates it; bounds were set here for any values at or beyond the usual limits of such assays
Conditions: source organism: Dengue virus 2 Thailand/NGS-C/1944
endpoint name: Kd
Answers without a unit are incomplete; give the number and then its unit.

Please report the recorded Kd for "MLLVLCVTQV" .
843 nM

====

Molecular target: HLA-B*08:01
Experiment: IEDB peptide-MHC binding, purified MHC/direct/fluorescence; filed as Kd, often an IC50 or EC50 that approximates it; bounds were set here for any values at or beyond the usual limits of such assays
Settings: source organism: Vibrio vulnificus CMCP6
pKd: −log10 of the molar value.
Provide the reported pKd of each item.

pKd for "GWPDNYCEW" ?
≤ 4.70

// next record "KGHLPLLDK"
≤ 4.70

====

Biological target: HLA-A*02:03
Assay: IEDB peptide-MHC binding, purified MHC/competitive/fluorescence; filed as Kd, often an IC50 or EC50 that approximates it; bounds were set here for any values at or beyond the usual limits of such assays
Conditions: source organism: Human immunodeficiency virus 1
endpoint name: pKd
Note on pKd: it is the negative log10 of concentration, concentration in mol/L.

Fill in: pKd of "RSLYNTVAVLY" is ___
5.87

Another sequence: "ALVEMGHHV"
8.44

Field entry: "KMGKAGYVT"
6.71

====

Molecular target: HLA-A*30:01
Assay: IEDB peptide-MHC binding, purified MHC/competitive/fluorescence; filed as Kd, often an IC50 or EC50 that approximates it; bounds were set here for any values at or beyond the usual limits of such assays
Conditions: source organism: Yersinia pestis KIM10+
endpoint name: pKd
On this scale, pKd is minus log10 of a concentration expressed in M (mol/L).

So what's the measured pKd for this one? "SRWAISHWL"
5.57

====

Target: HLA-A*03:01
Test: IEDB peptide-MHC binding, purified MHC/direct/fluorescence; filed as Kd, often an IC50 or EC50 that approximates it; bounds were set here for any values at or beyond the usual limits of such assays
Details: source organism: Limestone Canyon virus
endpoint name: Kd

Field request: Kd | item: "YRTLGVFRY"
≥ 20 µM

====

Target: HLA-C*14:02
Assay: IEDB peptide-MHC binding, purified MHC/competitive/fluorescence; filed as Kd, often an IC50 or EC50 that approximates it; bounds were set here for any values at or beyond the usual limits of such assays
Conditions: source organism: Pan troglodytes
endpoint name: Kd (µM)
Give the quantity in µM, number only.

So what's the measured Kd for this one? "VMPPRTLLL"
0.0768

====

Target: HLA-A*02:11
Assay: IEDB peptide-MHC binding, purified MHC/competitive/fluorescence; filed as Kd, often an IC50 or EC50 that approximates it; bounds were set here for any values at or beyond the usual limits of such assays
Conditions: source organism: Cryptosporidium parvum Iowa II
endpoint name: pKd
The scale used: pKd is minus the common logarithm of the concentration in molar units.

Please look up its pKd: "SGLPGIFIV"
5.26

====

Target: HLA-B*27:03
Experiment: IEDB peptide-MHC binding, purified MHC/competitive/fluorescence; filed as Kd, often an IC50 or EC50 that approximates it; bounds were set here for any values at or beyond the usual limits of such assays
Conditions: source organism: Cryptosporidium parvum Iowa II
pKd: −log10 of the molar value.
endpoint name: pKd

Data request, read-out pKd, for "SGLPGIFIV"
≤ 4.70
